List of fold change (FC) values.
Experiment: Toxicity in human Huh-7 cells assessed as fold change in lipid droplet formation at 10 uM incubated for 72 hrs boron-dipyrromethene staining based by high content screening (HCS) fluorescence analysis relative to control
Assay type: cell-based
Details: huh-7, 72 h

>  <moleculeSmiles>
Cc1c([C@H](OC(C)(C)C)C(=O)O)c(N2CCC(C)(C)CC2)c(-c2ccc(OCCc3ccc(F)cc3)cc2)c2nccn12

>  <fold change (FC)>
3.3

$$$$
>  <moleculeSmiles>
Cc1nc2c(-c3ccc4c(c3)CCN(c3ncnc5c3oc3ccccc35)C4)c(N3CCC(C)(C)CC3)c([C@H](OC(C)(C)C)C(=O)O)c(C)n2n1

>  <fold change (FC)>
3.9

$$$$
>  <moleculeSmiles>
Cc1nc(C)c([C@H](OC(C)(C)C)C(=O)O)c(N2CCC(C)(C)CC2)c1-c1ccc(OCCc2ccc(F)cc2)cc1

>  <fold change (FC)>
3.7

$$$$
>  <moleculeSmiles>
Cc1c([C@H](OC(C)(C)C)C(=O)O)c(N2CCC(C)(C)CC2)c(-c2ccc3c(c2)CCN(c2ncnc4c2oc2ccccc24)C3)c2cnnn12

>  <fold change (FC)>
2.7

$$$$
>  <moleculeSmiles>
Cc1c([C@H](OC(C)(C)C)C(=O)O)c(N2CCC(C)(C)CC2)c(-c2ccc(OCCc3ccc(F)cc3)cc2)c2ncnn12

>  <fold change (FC)>
2.7

$$$$

----------
Assay: Permeability of the compound at pH 5.5 by PAMPA assay
Type: ADME
Details: read-out: permeability
List of Papp values.
assayMetric: Papp (×10⁻⁶ cm/s)

>  <moleculeSmiles>
Cc1nc2c(-c3ccc4c(c3)CCN(Cc3c(C)cccc3Cl)C4)c(N3CCC(C)(C)CC3)c([C@H](OC(C)(C)C)C(=O)O)c(C)n2n1

>  <assayMetric>
Papp

>  <assayValue>
35.2

$$$$
>  <moleculeSmiles>
Cc1c([C@H](OC(C)(C)C)C(=O)O)c(N2CCC(C)(C)CC2)c(-c2ccc(OCCc3ccc(F)cc3)cc2)c2ncnn12

>  <assayMetric>
Papp

>  <assayValue>
160

$$$$
>  <moleculeSmiles>
Cc1nc2c(-c3ccc4c(c3)CCN(c3ncnc5c3oc3ccccc35)C4)c(N3CCC(C)(C)CC3)c([C@H](OC(C)(C)C)C(=O)O)c(C)n2n1

>  <assayMetric>
Papp

>  <assayValue>
101

$$$$
>  <moleculeSmiles>
Cc1c([C@H](OC(C)(C)C)C(=O)O)c(N2CCC(C)(C)CC2)c(-c2ccc(OCCc3ccc(F)cc3)cc2)c2nccn12

>  <assayMetric>
Papp

>  <assayValue>
49.8

$$$$
>  <moleculeSmiles>
Cc1cn2c(C)c([C@H](OC(C)(C)C)C(=O)O)c(N3CCC(C)(C)CC3)c(-c3ccc(OCCc4ccc(F)cc4)cc3)c2n1

>  <assayMetric>
Papp

>  <assayValue>
38.7

$$$$

----------
List of CC50 values.
Test: Cytotoxicity against human MT2 cells infected with HIV1 NLRep-Rluc harbouring polymorphic 124T/125T integrase
Format: toxicity, cell-based
Details: MT2 cells infected with HIV-1 NLRep-Rluc

>  <moleculeSmiles>
Cc1nc2c(-c3ccc4c(c3)CCN(c3ncnc5c3oc3ccccc35)C4)c(N3CCC(C)(C)CC3)c([C@H](OC(C)(C)C)C(=O)O)c(C)n2n1

>  <CC50>
≥ 3 µM

$$$$
>  <moleculeSmiles>
Cc1c([C@H](OC(C)(C)C)C(=O)O)c(N2CCC(C)(C)CC2)c(-c2ccc(OCCc3ccc(F)cc3)cc2)c2ncnn12

>  <CC50>
≥ 18.2 µM

$$$$
>  <moleculeSmiles>
Cc1cn2c(C)c([C@H](OC(C)(C)C)C(=O)O)c(N3CCC(C)(C)CC3)c(-c3ccc(OCCc4ccc(F)cc4)cc3)c2n1

>  <CC50>
≥ 10.3 µM

$$$$
>  <moleculeSmiles>
Cc1c([C@H](OC(C)(C)C)C(=O)O)c(N2CCC(C)(C)CC2)c(-c2ccc(OCCc3ccc(F)cc3)cc2)c2nncn12

>  <CC50>
≥ 18.2 µM

$$$$
>  <moleculeSmiles>
Cc1nc2c(-c3ccc4c(c3)CCN(Cc3c(C)cccc3Cl)C4)c(N3CCC(C)(C)CC3)c([C@H](OC(C)(C)C)C(=O)O)c(C)n2n1

>  <CC50>
≥ 3 µM

$$$$
>  <moleculeSmiles>
Cc1c([C@H](OC(C)(C)C)C(=O)O)c(N2CCC(C)(C)CC2)c(-c2ccc3c(c2)CCN(c2ncnc4c2oc2ccccc24)C3)c2nccn12

>  <CC50>
≥ 3 µM

$$$$
>  <moleculeSmiles>
Cc1c([C@H](OC(C)(C)C)C(=O)O)c(N2CCC(C)(C)CC2)c(-c2ccc(OCCc3ccc(F)cc3)cc2)c2nc(C(F)(F)F)cn12

>  <CC50>
≥ 10.3 µM

$$$$
>  <moleculeSmiles>
Cc1c([C@H](OC(C)(C)C)C(=O)O)c(N2CCC(C)(C)CC2)c(-c2ccc(OCCc3ccc(F)cc3)cc2)c2cccn12

>  <CC50>
≥ 18.2 µM

$$$$
>  <moleculeSmiles>
Cc1c([C@H](OC(C)(C)C)C(=O)O)c(N2CCC(C)(C)CC2)c(-c2ccc3c(c2)CCN(c2ncnc4c2oc2ccccc24)C3)c2ncnn12

>  <CC50>
≥ 3 µM

$$$$
>  <moleculeSmiles>
CCc1cn2c(C)c([C@H](OC(C)(C)C)C(=O)O)c(N3CCC(C)(C)CC3)c(-c3ccc(OCCc4ccc(F)cc4)cc3)c2n1

>  <CC50>
≥ 10.3 µM

$$$$
>  <moleculeSmiles>
Cc1nc(C)c([C@H](OC(C)(C)C)C(=O)O)c(N2CCC(C)(C)CC2)c1-c1ccc(OCCc2ccc(F)cc2)cc1

>  <CC50>
≥ 18.2 µM

$$$$
>  <moleculeSmiles>
Cc1c([C@H](OC(C)(C)C)C(=O)O)c(N2CCC(C)(C)CC2)c(-c2ccc(OCCc3ccc(F)cc3)cc2)c2nc(CC(C)C)cn12

>  <CC50>
≥ 10.3 µM

$$$$
>  <moleculeSmiles>
Cc1nc2c(C)c(N3CCC(C)(C)CC3)c([C@H](OC(C)(C)C)C(=O)O)c(C)n2n1

>  <CC50>
≥ 3 µM

$$$$
>  <moleculeSmiles>
Cc1c([C@H](OC(C)(C)C)C(=O)O)c(N2CCC(C)(C)CC2)c(-c2ccc(OCCc3ccc(F)cc3)cc2)c2cnnn12

>  <CC50>
≥ 18.2 µM

$$$$

Values were extracted from ChEMBL document CHEMBL5126573.
